These measurements were taken from patent US20160031942A1.

assay.system: T1, Recombinant protein RHAMM-CT (truncated RHAMM, carboxy terminus containing the HA binding domain, amino acids … (Mus musculus (Mouse), UniProt Q00547 706-766))
T1 construct: Expressed in E. coli BL21 from pPAL7-RHAMM as eXact-tagged protein and purified on Profinity eXact resin (fluoride elution); M.W. 7.1 kDa, pI 10.1; also called recombinant RHAMM
T1 sequence: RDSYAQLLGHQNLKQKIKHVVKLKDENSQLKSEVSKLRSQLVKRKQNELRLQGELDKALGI
test.details: SPR-based screening (FIG. 3B legend)
Method: ProteON XPR36 system was used for the selection and ranking of different tubulin derived peptides against RHAMM. For immobilization of RHAMM, the ProteON GLC sensor chip surfaces were activated by amine coupling using 100 mM EDAC and 24 mM sulfo-NHS. RHAMM (30 μg/mL in sodium bicarbonate buffer, pH 9.7) was injected at a flow a rate of 30 μl/min. A buffer sample was injected on a different sensor plate for use as a reference. […]
Ends that are not written are not given here.
readout.label: binding result

Solved cases (4 shown):
EAFEDEEEEIDG-NH2 (Synthetic 12-mer made on Rink amide MBHA resin) [peptide 12a (SEQ ID NO: 12), unmodified tubulin-derived peptide]; binds
EEDFGEEAEEEA-NH2 (Synthetic 12-mer made on Rink amide MBHA resin) [peptide 9a (SEQ ID NO: 9), unmodified tubulin-derived peptide, beta-Ia CTT]; binds
SVEAEAEEGEEY-NH2 (Synthetic 12-mer made on Rink amide MBHA resin) [peptide 3a (SEQ ID NO: 3), unmodified tubulin-derived peptide, alpha-IIIc CTT]; binds
GEFEEEAEEEVA-NH2 (Synthetic 12-mer made on Rink amide MBHA resin) [peptide 11a (SEQ ID NO: 11), unmodified tubulin-derived peptide, beta-IV CTT]; binds

May I ask what binding result has been recorded for VEGEGEEEGEEY-NH2 (Synthetic 12-mer made on Rink amide MBHA resin; also called ala-CTT) [peptide 1a (SEQ ID NO: 1), unmodified tubulin-derived peptide, alpha-Ia CTT] ?
binds
